Target: HLA-A*24:02-… (human; Epstein Barr Virus)
Assay: HLA-peptide multimer staining and single-cell sorting of CD8+ T cells, paired TCR sequencing
property_name: binding result

{"columns": ["binder", "result"],
 "data": [
  ["TCR Clone 2 of Donor Y6W in Table 5 (TCR, V domains shown, also called Donor Y6W Clone 2) V domain 1: QKEVEQNSGPLSVPEGAIASLNCTYSDRGSQSFFWYRQYSGKSPELIMFIYSNGDKEDGRFTAQLNKASQYVSLLIRDSQPSDSATYLCAVNVGNTGFQKLVFGTGTRLLVSP V domain 2: SQTIHQWPATLVQPVGSPLSLECTVEGTSNPNLYWYRQAAGRGLQLLFYSVGIGQISSEVPQNLSASRPQDRQFILSSKKLLLSDSGFYLCACQWQGLGGELFFGEGSRLTVLE", "binds"],
  ["TCR Clone 3 of Donor Y6W in Table 5 (TCR, V domains shown, also called Donor Y6W Clone 3) V domain 1: GENVEQHPSTLSVQEGDSAVIKCTYSDSASNYFPWYKQELGKGPQLIIDIRSNVGEKKDQRIAVTLNKTAKHFSLHITETQPEDSAVYFCAASEFQFYFGTGTSLTVIP V domain 2: DSGVTQTPKHLITATGQRVTLRCSPRSGDLSVYWYQQSLDQGLQFLIQYYNGEERAKGNILERFSAQQFPDLHSELNLSSLELGDSALYFCASSPGQRANTGELFFGEGSRLTVLE", "binds"],
  ["TCR Clone 1 of Donor Y6W in Table 5 (TCR, V domains shown, also called Donor Y6W Clone 1) V domain 1: SLAKTTQPISMDSYEGQEVNITCSHNNIATNDYITWYQQFPSQGPRFIIQGYKTKVTNEVASLFIPADRKSSTLSLPRVSLSDTAVYYCLVVPFGGYNKLIFGAGTRLAVHP V domain 2: SAVISQKPSRDICQRGTSLTIQCQVDSQVTMMFWYRQQPGQSLTLIATANQGSEATYESGFVIDKFPISRPNLTFSTLTVSNMSPEDSSIYLCSVGEGTSGYESYNEQFFGPGTRLTVLE", "binds"]
]}

Origin of the recorded values: patent US20210380657A1
